target.or.system: Rhesus PDE2A3 (Macaca mulatta)
Construct: made in house; host or cells: AD293 cells, transient transfection; supernatant of sonicated lysate
Sequence (B3VTJ2 1-941): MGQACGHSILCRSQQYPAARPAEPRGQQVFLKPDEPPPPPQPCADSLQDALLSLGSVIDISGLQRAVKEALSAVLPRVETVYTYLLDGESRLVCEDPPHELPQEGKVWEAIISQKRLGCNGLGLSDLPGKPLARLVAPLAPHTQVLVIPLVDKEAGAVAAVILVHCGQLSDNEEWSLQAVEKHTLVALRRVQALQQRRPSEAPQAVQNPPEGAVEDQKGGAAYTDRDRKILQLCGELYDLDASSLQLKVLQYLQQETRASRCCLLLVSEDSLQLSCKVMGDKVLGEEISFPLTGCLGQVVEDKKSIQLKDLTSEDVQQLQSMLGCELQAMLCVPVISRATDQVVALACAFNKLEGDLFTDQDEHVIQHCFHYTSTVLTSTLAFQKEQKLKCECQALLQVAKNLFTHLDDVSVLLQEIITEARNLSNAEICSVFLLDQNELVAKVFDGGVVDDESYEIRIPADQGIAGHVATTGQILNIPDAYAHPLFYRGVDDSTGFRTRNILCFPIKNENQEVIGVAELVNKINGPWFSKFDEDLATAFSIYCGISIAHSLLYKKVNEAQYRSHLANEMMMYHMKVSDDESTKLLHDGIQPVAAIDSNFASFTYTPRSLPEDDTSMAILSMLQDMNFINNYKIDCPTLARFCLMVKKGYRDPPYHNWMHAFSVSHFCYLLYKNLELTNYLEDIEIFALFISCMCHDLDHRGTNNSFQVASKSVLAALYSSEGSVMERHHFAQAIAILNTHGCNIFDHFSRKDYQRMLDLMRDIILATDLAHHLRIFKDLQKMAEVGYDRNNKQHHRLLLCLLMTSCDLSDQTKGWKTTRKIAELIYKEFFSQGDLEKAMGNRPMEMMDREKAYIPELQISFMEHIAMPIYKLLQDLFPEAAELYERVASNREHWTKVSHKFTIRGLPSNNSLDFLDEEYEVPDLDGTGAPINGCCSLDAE
test.name: PDE2 fluorescence polarization (IMAP FP) inhibition assay, rhesus PDE2A3
Assay type: biochemical, rhesus macaque
study.conditions: Lab B; read-out: Rhesus PDE2 Ki (nM) Lab B
Sorting guide: entries reporting Ki beneath 20 nM go in the Criterion met pile, the rest go in the Criterion not met pile.

> print(dat)
                                    compound                target.or.system       answer.label
 1  Cc1nc2c(c(CC(F)F)nn2C(C)c2ccc(C(F)(F)F)cc2)c(=O)[nH]1 (single isomer, unassigned) [Example 286]  Rhesus PDE2A3 (Macaca mulatta)      Criterion met
 2  Cc1nc2c(c(CF)nn2C(c2ccc(C(F)(F)F)cc2)C(F)(F)F)c(=O)[nH]1 (centres unmarked) [Example 201]  Rhesus PDE2A3 (Macaca mulatta)      Criterion met
 3  COc1ccc(Cc2nc3c(c(CF)nn3C(C)c3ccc(C(F)(F)F)cc3)c(=O)[nH]2)cc1 (single isomer, unassigned) [Example 219]  Rhesus PDE2A3 (Macaca mulatta)      Criterion met
 4  Cc1nc2c(c(CCO)nn2C(C)c2ccc(C(F)(F)F)cc2)c(=O)[nH]1 (single isomer, unassigned) [Example 250]  Rhesus PDE2A3 (Macaca mulatta)      Criterion met
 5  Cc1nc2c(c(CO)nn2C(c2ccc(OC(F)(F)F)cc2)C(C)C)c(=O)[nH]1 (single isomer, unassigned) [Example 85]  Rhesus PDE2A3 (Macaca mulatta)      Criterion met
 6  COc1ccc(Cc2nc3c(c(CF)nn3C(C)c3ccc(C(F)(F)F)cc3)c(=O)[nH]2)cc1 (single isomer, unassigned) [Example 218]  Rhesus PDE2A3 (Macaca mulatta)  Criterion not met
 7  Cc1nc2c(c(CO)nn2C(c2ccc(C(F)(F)F)cc2)C2(C)CC2)c(=O)[nH]1 (single isomer, unassigned) [Example 25]  Rhesus PDE2A3 (Macaca mulatta)  Criterion not met
 8  COCc1nn(C(C)c2ccc(C(F)(F)F)cc2)c2nc(C)[nH]c(=O)c12 (single isomer, unassigned) [Example 279]  Rhesus PDE2A3 (Macaca mulatta)  Criterion not met
 9  Cc1nc2c(c(C)nn2CC(C)(O)c2ccc(C(F)(F)F)cc2)c(=O)[nH]1 (centres unmarked) [Example 336]  Rhesus PDE2A3 (Macaca mulatta)  Criterion not met
10  CC(=O)OCc1nn(C(C)c2ccc(C(F)(F)F)cc2)c2nc(C)[nH]c(=O)c12 (centres unmarked) [Example 319]  Rhesus PDE2A3 (Macaca mulatta)  Criterion not met
11  COCc1nc2c(c(CO)nn2C(C)c2ccc(C(F)(F)F)cc2)c(=O)[nH]1 (single isomer, unassigned) [Example 293]  Rhesus PDE2A3 (Macaca mulatta)      Criterion met
12  Cc1nc2c(c(CO)nn2C(c2ccc(OC(F)(F)F)cc2)C2CC2)c(=O)[nH]1 (single isomer, unassigned) [Example 94]  Rhesus PDE2A3 (Macaca mulatta)      Criterion met
13  Cc1nc2c(c(CF)nn2C(c2ccc(C(F)(F)F)cc2)C2CC2)c(=O)[nH]1 (centres unmarked) [Example 231]  Rhesus PDE2A3 (Macaca mulatta)      Criterion met
14  Cc1nc2c(c(CF)nn2C(C)c2ccc(OC(F)(F)F)c(F)c2)c(=O)[nH]1 (single isomer, unassigned) [Example 216]  Rhesus PDE2A3 (Macaca mulatta)  Criterion not met
15  CC(c1ccc(C(F)(F)F)cc1)n1nc(COCc2ccccc2)c2c(=O)[nH]c(C(F)F)nc21 (centres unmarked) [Example 283]  Rhesus PDE2A3 (Macaca mulatta)  Criterion not met
16  Cc1nc2c(c(CCO)nn2C(C)c2ccc(C(F)(F)F)cc2)c(=O)[nH]1 (single isomer, unassigned) [Example 249]  Rhesus PDE2A3 (Macaca mulatta)  Criterion not met
17  Cc1nc2c(c(CO)nn2C(C)c2ccc(C3CC3)cc2)c(=O)[nH]1 (centres unmarked) [Example 3]  Rhesus PDE2A3 (Macaca mulatta)      Criterion met
18  Cc1nc2c(c(CF)nn2C(c2ccc(C(F)(F)F)cc2)C(C)(C)C)c(=O)[nH]1 (single isomer, unassigned) [Example 233]  Rhesus PDE2A3 (Macaca mulatta)  Criterion not met
19  Cc1nc2c(c(CO)nn2C(c2ccc(C(F)(F)F)c(F)c2)C2CC2)c(=O)[nH]1 (single isomer, unassigned) [Example 91]  Rhesus PDE2A3 (Macaca mulatta)      Criterion met
